Each recorded value in this set is attributed to patent US12180207B2.

system-tested: FGFR3 (SEQ ID NO: 5, amino acids 449-759) (Homo sapiens (Human), UniProt P22607)
Sequence (P22607 449-759): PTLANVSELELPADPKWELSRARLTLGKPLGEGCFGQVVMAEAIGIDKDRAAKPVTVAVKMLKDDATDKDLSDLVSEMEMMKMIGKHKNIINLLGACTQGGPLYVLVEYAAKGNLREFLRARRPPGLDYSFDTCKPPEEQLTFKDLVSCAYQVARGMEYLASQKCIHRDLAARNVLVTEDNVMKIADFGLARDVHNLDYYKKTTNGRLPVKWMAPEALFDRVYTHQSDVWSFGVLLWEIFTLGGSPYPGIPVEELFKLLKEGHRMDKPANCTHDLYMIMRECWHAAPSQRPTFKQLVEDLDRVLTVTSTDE
test-details: LC/MS FGFR3 kobs assay (covalent protein modification)
Format: binding
condition-details: 500 nM FGFR3, 3 μM compound
test-readout: FGFR3 Enz kobs (min⁻¹)

Example molecules with recorded FGFR3 Enz kobs:
molecule: C=CC(=O)N1CC(C(=O)N2CCC(n3cc(-c4cc(OC5CCC5)c5c(C#N)cnn5c4)cn3)CC2)C1 [Example 125]
FGFR3 Enz kobs [min⁻¹]: 0.01842
--
molecule: C=CC(=O)N1CC[C@@H](C(=O)N2CCC(n3ncc(-c4cc(OC)c5c(C#N)cnn5c4)c3C)CC2)C1 [Example 83]
FGFR3 Enz kobs [min⁻¹]: 0.00547
--
molecule: C=CC(=O)Nc1ccc(C(=O)N2CC[C@@H](n3cc(-c4cc(OC)c5c(C#N)cnn5c4)cn3)C2)cc1 [Example 55]
FGFR3 Enz kobs [min⁻¹]: 0.0205

A: CCc1c(-c2cc(OC)c3c(C#N)cnn3c2)cnn1C1CCN(C(=O)C2(F)CN(C(=O)/C=C/CN(C)C)C2)CC1 [Example 162]
B: C=CC(=O)Nc1ccc(C(=O)N2CC[C@H](n3cc(-c4cc(OC)c5c(C#N)cnn5c4)cn3)C2)cc1C [Example 70]
C: C=CS(=O)(=O)N[C@H]1CC[C@H](C(=O)N2CCC(n3cc(-c4cc(OC)c5c(C#N)cnn5c4)cn3)CC2)C1 [Example 190]
D: C=CC(=O)N1CC(CN2CCC(n3ncc(-c4cc(OC)c5c(Cl)cnn5c4)c3C)CC2)(OC)C1 [Example 119]
Query: Let's sort these by FGFR3 Enz kobs, smallest first. Go ahead? Form field (ranking): labels in requested order.
Result: B, C, D, A

----------
system-tested: HEK-293 cells transfected with dox-inducible human wild type FGFR3 (Homo sapiens (Human), UniProt P22607)
Sequence (P22607 23-806): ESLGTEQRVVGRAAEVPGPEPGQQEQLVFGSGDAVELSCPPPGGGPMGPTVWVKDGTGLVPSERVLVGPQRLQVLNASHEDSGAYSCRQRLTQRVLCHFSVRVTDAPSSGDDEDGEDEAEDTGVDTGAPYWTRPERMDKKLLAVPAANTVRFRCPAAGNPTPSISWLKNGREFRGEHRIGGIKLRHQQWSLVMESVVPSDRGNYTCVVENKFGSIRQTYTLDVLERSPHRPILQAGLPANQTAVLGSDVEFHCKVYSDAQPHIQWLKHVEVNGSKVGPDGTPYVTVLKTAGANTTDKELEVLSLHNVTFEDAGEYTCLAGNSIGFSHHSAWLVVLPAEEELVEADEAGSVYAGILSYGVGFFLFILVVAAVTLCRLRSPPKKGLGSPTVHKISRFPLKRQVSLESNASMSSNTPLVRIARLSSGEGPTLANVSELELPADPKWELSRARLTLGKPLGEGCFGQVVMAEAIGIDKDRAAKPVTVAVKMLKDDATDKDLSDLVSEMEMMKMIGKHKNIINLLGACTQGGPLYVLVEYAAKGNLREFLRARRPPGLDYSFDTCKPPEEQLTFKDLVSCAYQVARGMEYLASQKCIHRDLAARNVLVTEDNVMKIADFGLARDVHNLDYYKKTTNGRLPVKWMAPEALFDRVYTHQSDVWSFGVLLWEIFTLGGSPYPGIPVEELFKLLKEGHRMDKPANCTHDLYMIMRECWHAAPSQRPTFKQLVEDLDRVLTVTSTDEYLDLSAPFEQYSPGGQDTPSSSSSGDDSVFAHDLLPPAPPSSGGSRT
test-details: FGFR3 pERK cell assay
Type: cell-based
condition-details: HEK-293 dox-inducible FGFR3, 1 hour compound, 100 ng/ml FGF-acidic; maximum concentration 5 μM
pIC50: −log10 of the molar value.
test-readout: pIC50

Example compounds with recorded pIC50:
chemical-structure: C=CC(=O)N1CC(C(=O)N2CC3CC(C2)N3c2ccc(-c3cc(OC)c4c(C#N)cnn4c3)cn2)C1
test-readout: pIC50
measured: 5.58
//
chemical-structure: C=CC(=O)N1CC(CN2CC(n3ncc(-c4cc(OC)c5c(C#N)cnn5c4)c3C)C2)C1
test-readout: pIC50
measured: 6.69
//
chemical-structure: C=CC(=O)N1C2CC1CN(C(=O)N1CCC(n3cc(-c4cc(OC)c5c(C#N)cnn5c4)cn3)CC1)C2
test-readout: pIC50
measured: 7.07

A: COc1cc(-c2cnn(C3CCN(CC4(OC)CN(C(=O)/C=C/CN(C)C)C4)CC3)c2C)cn2ncc(Cl)c12
B: C=CC(=O)N1CC(C(=O)N2CCC(n3cc(-c4cc(OC)c5c(C#N)cnn5c4)c(CC)n3)CC2)C1
C: C=CC(=O)N1CC(OC)(C(=O)N2CCC(n3ncc(-c4cc(OC)c5c(Cl)cnn5c4)c3C)CC2)C1
Query: Arrange these compounds by their pIC50, starting with the largest number. Form field (ranking): labels in requested order.
Result: C, A, B

----------
system-tested: HEK-293 cells transfected with dox-inducible human wild type FGFR3 (Homo sapiens (Human), UniProt P22607)
test-details: FGFR3 pERK cell assay
Type: cell-based
condition-details: HEK-293 dox-inducible FGFR3, 1 hour compound, 100 ng/ml FGF-acidic; maximum concentration 5 μM
test-readout: IC50 (nM)

Example molecules with recorded IC50:
molecule: COc1cc(-c2c(C)nn(C3CCN(C(=O)C4(F)CN(C(=O)/C=C/CN(C)C)C4)CC3)c2C)cn2ncc(C#N)c12 [Example 161]
measured: 133
//
molecule: COc1cc(-c2cnn(C3CCN(C(=O)C4(F)CN(C(=O)/C=C/CN(C)C)C4)CC3)c2C)cn2ncc(Cl)c12 [Example 170]
measured: 55
//
molecule: C=CC(=O)N1CC(C)(CN2CCC(n3ncc(-c4cc(OC)c5c(C#N)cnn5c4)c3C)CC2)C1 [Example 90]
measured: 43
//
molecule: C=CC(=O)N1CC(F)(C(=O)N2CCN(c3cc(C)c(-c4cc(OC)c5c(C#N)cnn5c4)cn3)CC2)C1 [Example 114]
measured: 248

a: C=CC(=O)N1CC(CN2CCC(n3ncc(-c4cc(OC)c5c(C#N)cnn5c4)c3C)CC2)C1 [Example 89]
b: COC/C=C/C(=O)N1CC(F)(C(=O)N2CCC(n3ncc(-c4cc(OC)c5c(C#N)cnn5c4)c3C)CC2)C1 [Example 154]
Query: Out of a and b , name the one with the higher IC50. Lab note: record the label of whichever item you select.
Result: b
(b: 122 nM, a: 22 nM)

----------
Reported IC50 for target or system dephosphorylated FGFR2 (Homo sapiens (Human)), by entry.
test-readout: IC50 (nM)

chemical-structure: C=CC(=O)N1CC(F)(C(=O)N2CCC(n3cc(-c4cc(OC)c5c(C#N)cnn5c4)cn3)CC2)C1
IC50 [nM]: 44
--
chemical-structure: C=CC(=O)N1CC(CN2C[C@H]3C[C@@H]2CN3c2ccc(-c3cc(OC)c4c(C#N)cnn4c3)cn2)C1
IC50 [nM]: 28
--
chemical-structure: C=CC(=O)N1CC(F)(C(=O)N2CCN(c3ccc(-c4cc(OC)c5c(C#N)cnn5c4)cn3)CC2)C1
IC50 [nM]: 16
--
chemical-structure: COc1cc(-c2cnn(C3CCN(C(=O)C4(F)CN(C(=O)/C=C/CN(C)C)C4)CC3)c2C)cn2ncc(C#N)c12
IC50 [nM]: 11
--
chemical-structure: COc1cc(-c2cnn(C3CCN(C(=O)C4CN(C(=O)/C=C/CN(C)C)C4)CC3)c2C)cn2ncc(C#N)c12
IC50 [nM]: 49

I: C=CC(=O)N1CC(CN2CCC(n3ncc(-c4cc(OC)c5c(C#N)cnn5c4)c3C)CC2)C1
II: CCc1c(-c2cc(OC)c3c(C#N)cnn3c2)cnn1C1CCN(C(=O)C2(F)CN(C(=O)/C=C/CN(C)C)C2)CC1
III: C=CC(=O)N1CC(C(=O)N2CCC(n3ncc(-c4cc(OC)c5c(C#N)cnn5c4)c3C)CC2)C1
IV: C=CC(=O)N1CC(C(=O)N2C[C@@H]3C[C@H]2CN3c2ccc(-c3cc(OC)c4c(C#N)cnn4c3)cn2)C1
Query: Let's sort these by IC50, smallest first. Go ahead? Form field (ranking): labels in requested order.
Result: III, IV, I, II

----------
Reported IC50 for target or system dephosphorylated FGFR1 (SEQ ID NO: 1, amino acids 458 to 765) (Homo sapiens (Human)), by entry.
test-readout: IC50 (nM)

Example compounds with recorded IC50:
compound: C=CC(=O)N1CC[C@@H](C(=O)N2CCN(c3ccc(-c4cc(OC)c5c(C#N)cnn5c4)cn3)CC2)C1
test-readout: IC50
measured: 58
//
compound: C=CC(=O)N1CCC(Oc2cccc(-n3cc(-c4cc(OC)c5c(C#N)cnn5c4)cn3)c2)CC1
test-readout: IC50
measured: 552
//
compound: COc1cc(-c2cnn(C3CCN(C(=O)C4CN(C(=O)/C=C/CCl)C4)CC3)c2)cn2ncc(C#N)c12
test-readout: IC50
measured: 32
//
compound: C=CC(=O)N1CC(C(=O)N2CCC(n3cc(-c4cc(OC)c5c(C#N)cnn5c4)cn3)CC2)C1
test-readout: IC50
measured: 59
//
compound: C=CC(=O)N1CC(C(=O)N2C[C@H]3C[C@@H]2CN3c2ccc(-c3cc(OC)c4c(C#N)cnn4c3)cn2)C1
test-readout: IC50
measured: 108

I: C=CC(=O)N1CC(CC)(C(=O)N2CCC(n3cc(-c4cc(OC)c5c(C#N)cnn5c4)cn3)CC2)C1
II: C=CC(=O)N1CCC(n2cc(-c3cc(OC)c4c(C#N)cnn4c3)cn2)CC1
III: C=CC(=O)Nc1ccc(C(=O)N2CCC[C@@H](n3cc(-c4cc(OC)c5c(C#N)cnn5c4)cn3)C2)cc1
IV: C=CC(=O)N1CC(C(=O)N2CCC(n3cc(-c4cc(OC(C)C)c5c(C#N)cnn5c4)cn3)CC2)C1
Query: Arrange these compounds by their IC50, starting with the largest number. Form field (ranking): labels in requested order.
Result: III, II, IV, I
(III: 431 nM, II: 210 nM, IV: 59 nM, I: 38 nM)

a: C=CC(=O)N1CC(C(=O)N2CC(n3cc(-c4cc(OC)c5c(C#N)cnn5c4)cn3)C2)C1
b: C=CC(=O)Nc1ccc(C(=O)N2CC[C@H](n3cc(-c4cc(OC)c5c(C#N)cnn5c4)cn3)C2)cc1OC
Query: Out of a and b , name the one with the higher IC50. Lab note: record the label of whichever item you select.
Result: b
(b: 147 nM, a: 98 nM)

P: C=CC(=O)NC1C2CC1C2C(=O)N1CCC(n2cc(-c3cc(OC)c4c(C#N)cnn4c3)cn2)CC1 (centres unmarked)
Q: COc1cc(-c2cnn(C3CCN(C(=O)C4CN(C(=O)/C=C/CN5CCOCC5)C4)CC3)c2)cn2ncc(C#N)c12
Query: Looking only at measured IC50, which entry is lower, P or Q ? Lab note: record the label of whichever item you select.
Result: P

P: C=CC(=O)N1CC(C(=O)N2CCC(n3cc(-c4cc(OC)c5c(C#N)cnn5c4)cn3)CC2)C1C (centres unmarked)
Q: C=CC(=O)N1CCC(F)(C(=O)N2CCC(n3cc(-c4cc(OC)c5c(C#N)cnn5c4)cn3)CC2)CC1
Query: Looking only at measured IC50, which entry is lower, P or Q ? Lab note: record the label of whichever item you select.
Result: P

P: C=CC(=O)N1CC(CN2CCC(n3cc(-c4cc(OC)c5c(C#N)cnn5c4)cn3)CC2)C1
Q: C=CC(=O)N1CC(C(=O)N2CC[C@@H](n3cc(-c4cc(OC)c5c(C#N)cnn5c4)cn3)C2)C1
Query: Out of P and Q , name the one with the higher IC50. Lab note: record the label of whichever item you select.
Result: Q

P: C=CC(=O)Nc1ccc(C(=O)N2CC[C@@H](n3cc(-c4cc(OC)c5c(C#N)cnn5c4)cn3)C2)cc1
Q: C=CC(=O)N1CC(C(=O)N2CCC3(CC2)CN(c2ccc(-c4cc(OC)c5c(C#N)cnn5c4)cn2)C3)C1
Query: Out of P and Q , name the one with the higher IC50. Lab note: record the label of whichever item you select.
Result: P

A: C=CC(=O)N1CC(C(=O)N2CCC(n3cc(-c4cc(OCC(C)C)c5c(C#N)cnn5c4)cn3)CC2)C1
B: C=CC(=O)N1CCC(C(=O)N2CC(n3cc(-c4cc(OC)c5c(C#N)cnn5c4)cn3)C2)CC1
Query: Out of A and B , name the one with the higher IC50. Lab note: record the label of whichever item you select.
Result: B
(B: 120 nM, A: 38 nM)

I: C=CC(=O)N[C@H]1C[C@@H](C(=O)N2CC[C@@H](n3cc(-c4cc(OC)c5c(C#N)cnn5c4)cn3)C2)C1
II: C=CC(=O)N1CC(OC)(C(=O)N2CCC(n3cc(-c4cc(OC)c5c(Cl)cnn5c4)cn3)CC2)C1
Query: Out of I and II , name the one with the higher IC50. Lab note: record the label of whichever item you select.
Result: I
(I: 346 nM, II: 119 nM)
